Experiment Summary: NCI Yeast Anticancer Drug Screen. Data for the cln2 rad14 strain (AID 165);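 note: 0% = growth equal to vehicle treated cultures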
Conditions: S. cerevisiae cln2 rad14 strain, at 50.0 µM (retest, dose inferred, filed as 5.0), stronger effect = higher value
This is part of a sample that, as a whole, favours compounds with a hit. Of some 79,000 tested, about 15% had one in any assay.
Recorded Endpoint: growth inhibition (%)
Kindly provide the numeric value in % only, without the unit symbol.

The following compounds have reported results that may help.
• CCCCCCCCCN1CCNC1=S = 40
• CCCCCCCCCCCC(=O)N(CC)CC = 99
• C(=C1/CNC/C(=C/c2ccccc2)C1)/c1ccccc1 = 99
• Cc1cc2c(c3c1C(=O)CC3)C(C)(C)CC2(C)C = 78
• CCCCCC(Oc1ccc(Cl)cc1)C(=O)O (configuration not stated) = 87
• CC(=O)OC1CCC2(C)C(=CCC3C2CCC2(C)C(C(C)N)CCC32)C1 (configuration not stated) = 96

Moving on to the next compound.
**Q:** Provide one value: measured growth inhibition of "Nc1ccccc1-c1nc2c(ccc3ccccc32)[nH]1"
**A:** -10

Ref: PubChem BioAssay (NCI)
